Biological target: Histidine--tRNA ligase (Leishmania infantum) (UniProt A4I591)
Sequence (A4I591 as listed by the source): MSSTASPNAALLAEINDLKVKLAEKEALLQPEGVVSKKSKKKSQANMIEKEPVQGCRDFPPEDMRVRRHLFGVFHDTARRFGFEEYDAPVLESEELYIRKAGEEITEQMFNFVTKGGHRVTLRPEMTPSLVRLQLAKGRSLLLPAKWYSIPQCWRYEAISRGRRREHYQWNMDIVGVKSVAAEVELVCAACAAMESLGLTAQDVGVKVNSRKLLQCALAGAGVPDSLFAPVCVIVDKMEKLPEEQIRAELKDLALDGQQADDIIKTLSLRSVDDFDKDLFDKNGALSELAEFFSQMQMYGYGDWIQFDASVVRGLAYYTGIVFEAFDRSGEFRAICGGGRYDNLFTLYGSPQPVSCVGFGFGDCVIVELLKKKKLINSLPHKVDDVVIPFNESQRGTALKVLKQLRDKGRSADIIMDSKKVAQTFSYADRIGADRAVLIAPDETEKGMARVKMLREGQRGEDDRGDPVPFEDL
Test: Leishmania infantum Histidine tRNA synthetase (LdHisRS)
Type: functional
Parameters: scale not given: in the data most compounds retested in dose-response had high values
Conditions: 30 µM
Among all 69,000 compounds or so, about 420 (0.61%) showed an effect of 50% or more. The list comes from a sample in which strong results are over-represented; it also holds close analogues and randomly drawn compounds.
parameter-measured: Percent Effect (%)
Entry rule: numbers only, all in %.

Use the examples below as a reference point.
>  <compound>
Cc1[nH]nc(CCC(=O)N2C[C@H]3CC[C@@H]2CN(C(=O)N(C)C)C3)c1C

>  <u>
%

>  <Percent Effect>
13.9

$$$$
>  <compound>
CC(C)NC(=O)[C@@H]1C[C@@H]2CCN(Cc3ccoc3)C[C@H]2O1

>  <u>
%

>  <Percent Effect>
17.3

$$$$
>  <compound>
NC(=O)CS(=O)(=O)Cc1csc(-c2ccccc2)n1

>  <u>
%

>  <Percent Effect>
53

$$$$
>  <compound>
CC(C)n1nc2c(cc1=O)CN(c1nc3ccccc3s1)CC2

>  <u>
%

>  <Percent Effect>
18.2

$$$$
>  <compound>
c1ccc(OC2COC3(CCN(Cc4ccccn4)CC3)C2)cc1 (stereo unspecified)

>  <u>
%

>  <Percent Effect>
15

$$$$

Consider the compound CNC(=O)CN1CCC(CN(C)Cc2ccc(C)cc2C)CC1 and give its measured Percent Effect.
2.04

Consider the compound O=C(CS(=O)(=O)Cc1csc(-c2ccc(F)cc2)n1)NCC1CC1 and give its measured Percent Effect.
48.2

Consider the compound NC(=O)CS(=O)(=O)Cc1csc(-c2ccc(F)cc2)n1 and give its measured Percent Effect.
16.9

----------
Target: Histidine--tRNA ligase (Leishmania infantum)
Assay: Leishmania infantum Histidine tRNA synthetase (LdHisRS)
Format: functional
Design: scale not given: in the data most compounds retested in dose-response had high values
Conditions: 30 µM
The campaign covered roughly 69,000 compounds. About 420 (0.61%) showed an effect of 50% or more. The sample as a whole holds a higher share of strong results than the screen did.
parameter-measured: Percent Effect (%)
Entry rule: numbers only, all in %.

Use the examples below as a reference point.
>  <molecule>
N#Cc1ccc(N2CCC3(CC2)CC(OCc2cccnc2)CO3)cc1 (stereo unspecified)

>  <parameter-measured>
Percent Effect

>  <recorded-result>
33.3

$$$$
>  <molecule>
O=C([C@H]1COC[C@H]2CN(c3ncc(F)cn3)C[C@H]21)N1CCOCC1

>  <parameter-measured>
Percent Effect

>  <recorded-result>
1.71

$$$$
>  <molecule>
COC(=O)[C@@H](NC(=O)c1coc(COc2cccc(F)c2)n1)C(C)C

>  <parameter-measured>
Percent Effect

>  <recorded-result>
6.58

$$$$
>  <molecule>
Fc1ccc(N2CCC3(CC2)CC(OCc2cccnc2)CO3)cc1 (stereo unspecified)

>  <parameter-measured>
Percent Effect

>  <recorded-result>
56.1

$$$$
>  <molecule>
CC(NC(=O)c1coc(COc2cccc(F)c2)n1)c1nnc(N)s1 (stereo unspecified)

>  <parameter-measured>
Percent Effect

>  <recorded-result>
54

$$$$
>  <molecule>
Cc1cc(N2CCN(CCO)CC2)nc(-c2ccncc2)n1

>  <parameter-measured>
Percent Effect

>  <recorded-result>
20

$$$$
>  <molecule>
Cc1cc(N2CCC(Cc3ccccc3)CC2)ncn1

>  <parameter-measured>
Percent Effect

>  <recorded-result>
21.4

$$$$
>  <molecule>
Cc1cc(N2CCC(C(=O)N(C)C)CC2)nc(-c2ccncc2)n1

>  <parameter-measured>
Percent Effect

>  <recorded-result>
17.1

$$$$

Consider the molecule Fc1cnc(N2CCC3(CC2)CC(OCc2cccnc2)CO3)nc1 (stereo unspecified) and give its measured Percent Effect.
8.77

Consider the molecule Cc1cc(N2CCN(CC(=O)N(C)C)CC2)nc(-c2ccncc2)n1 and give its measured Percent Effect.
51.4

Consider the molecule CCC(C)NC(=O)c1coc(COc2cccc(F)c2)n1 (stereo unspecified) and give its measured Percent Effect.
19.7

Data provenance: ChEMBL document CHEMBL3988442
